Values from PubChem BioAssay (NCATS)

# measurementTarget: Thyrotropin-releasing hormone receptor (Homo sapiens) (UniProt P34981)
# Sequence (P34981 whole entry, looked up): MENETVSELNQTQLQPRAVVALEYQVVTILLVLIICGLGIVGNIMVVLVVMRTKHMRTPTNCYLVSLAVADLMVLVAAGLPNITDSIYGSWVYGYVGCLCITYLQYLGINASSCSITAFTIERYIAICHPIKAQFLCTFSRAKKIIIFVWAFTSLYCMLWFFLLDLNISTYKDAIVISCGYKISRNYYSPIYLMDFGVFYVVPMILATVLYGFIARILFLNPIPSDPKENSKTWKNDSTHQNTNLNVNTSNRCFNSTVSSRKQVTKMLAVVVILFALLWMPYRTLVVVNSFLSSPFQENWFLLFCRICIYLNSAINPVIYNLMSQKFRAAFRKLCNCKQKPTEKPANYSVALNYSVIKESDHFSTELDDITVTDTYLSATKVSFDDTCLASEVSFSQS
# procedureDetails: qHTS for Small Molecule Agonists and Allosteric Enhancers of Human TRH Receptor: Validation Screen for Agonists (AID 493127);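 also: intracellular calcium rise by fluo-8 fluorescence before TRH EC20 addition; 0% is about no effect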
# settings: TRH receptor agonist cell assay; at 2 µM; hits give high values
# Method: NIH Chemical Genomics Center [NCGC] NIH Molecular Libraries Probe Centers Network [MLPCN] Assay Submitter (PI): Marvin Gershengorn […] For the HTS assay freshly prepared cells are plated at a density of 2000/well in 3 ul of complete DMEM medium containing 10% serum in 1536-well plates and cultured over night at 37 C in a humidified incubator with 5% CO2. […] For the assay, assay plates were loaded into the FDSS kinetic plate reader. […]
Below, each entry is listed alongside its reported activation.

compound: CNc1ncnc2c1ncn2[C@H]1C[C@H](OP(=O)(O)O)[C@@H](COP(=O)(O)O)O1
unitSymbol: %
activation: 1.25
--
compound: CCCOC(=O)c1c(-c2ccccc2)nc(CC)c(C(=O)SCC)c1CCC
unitSymbol: %
activation: 1.31
--
compound: COc1cc(C(O)CO)ccc1O (stereo not drawn)
unitSymbol: %
activation: 0.688
--
compound: C#CC(N)CCC(=O)O (stereo not drawn)
unitSymbol: %
activation: 0.625
--
compound: NC(C(=O)N[C@@H]1C(=O)N2C(C(=O)O)=C(Cl)CS[C@H]12)c1ccccc1 (stereo partly drawn)
unitSymbol: %
activation: 0.938
--
compound: CCCc1c(-c2ccc(O)cc2)nn(-c2ccc(O)cc2)c1-c1ccc(O)cc1
unitSymbol: %
activation: 2.12
--
compound: CC(C)C[C@H](NC(=O)C1OC1C(=O)O)C(=O)NCCCCN=C(N)N (stereo partly drawn)
unitSymbol: %
activation: 0
--
compound: CC1CNCCN1S(=O)(=O)c1cccc2cnccc12 (stereo not drawn)
unitSymbol: %
activation: 1.25
--
compound: NC(N)=NC(N)=Nc1cccc(Cl)c1
unitSymbol: %
activation: 1.62
--
compound: CC(N)(C(=O)O)c1ccc(C(=O)O)cc1 (stereo not drawn)
unitSymbol: %
activation: 1.12
--
compound: Cc1nc(N=Nc2ccc(C(=O)O)cc2)c(COP(=O)(O)O)c(C=O)c1O
unitSymbol: %
activation: 0.125
--
compound: CCCC(=O)NCCc1c2n(c3ccc(OC)cc13)CCCc1ccccc1-2
unitSymbol: %
activation: -9.25
--
compound: NC(=O)c1cc[n+](CC2=C(C(=O)O)N3C(=O)[C@@H](NC(=O)[C@@H](c4ccccc4)S(=O)(=O)[O-])[C@H]3SC2)cc1
unitSymbol: %
activation: 13.1
--
compound: CNC(=O)c1cc2c(cn1)[nH]c1ccccc12
unitSymbol: %
activation: 0.75
--
compound: N=C(N)c1ccccc1
unitSymbol: %
activation: 1.19
--
compound: Clc1nccc2c1ccc1ccccc12
unitSymbol: %
activation: -6.94
--
compound: CC#CCOC(=O)c1c(C)nc2sc3c(c2c1N)CCC(O)C3 (stereo not drawn)
unitSymbol: %
activation: 0.438
--
compound: Cn1cc(C(F)(F)F)nc1-c1ccc(OCC(O)CNCCOc2ccc(O)c(C(N)=O)c2)cc1 (stereo not drawn)
unitSymbol: %
activation: 1.5
--
compound: O=C(O)c1ccccc1Nc1ccccc1
unitSymbol: %
activation: -4.31
--
compound: CNc1cc(NS(=O)(=O)c2ccc(N)cc2)nc(NC)n1
unitSymbol: %
activation: 0.25
--
compound: C[C@H](NC(=O)/C(C#N)=C/c1ccc(O)c(O)c1)c1ccccc1
unitSymbol: %
activation: -3.19
--
compound: N[C@H](C(=O)O)c1cc(O)cc(O)c1
unitSymbol: %
activation: 0.0625
--
compound: NC1CCN(O)C1=O (stereo not drawn)
unitSymbol: %
activation: 0.875
--
compound: O=C(O)C1=CC(=C(c2ccc(O)c(C(=O)O)c2)c2ccc(O)c(C(=O)O)c2)C=CC1=O
unitSymbol: %
activation: 1
--
compound: COCc1nc2c([nH]1)c(=O)n(C)c(=O)n2CC(C)C
unitSymbol: %
activation: 0.875
--
compound: Nc1ccc(CCNc2ncnc3c2ncn3C2OC(CO)C(O)C2O)cc1 (stereo not drawn)
unitSymbol: %
activation: 1.06
--
compound: N[C@@H](Cc1c[nH]c2ccccc12)C(=O)O
unitSymbol: %
activation: -0.125
--
compound: [Li+]
unitSymbol: %
activation: 1.31
--
compound: COc1ccccc1N1CCN(CCCNc2c(C)c(=O)n(C)c(=O)n2C)CC1
unitSymbol: %
activation: 0.0625
--
compound: COc1cc(C(O)C(=O)O)ccc1O (stereo not drawn)
unitSymbol: %
activation: 1.12
--
compound: CC(N)(Cc1ccc(O)c(O)c1)C(=O)O (stereo not drawn)
unitSymbol: %
activation: 0
--
compound: CCCCOC(=O)NS(=O)(=O)c1sc(CC(C)C)cc1-c1ccc(Cn2c(CC)nc3c(C)cc(C)nc32)cc1
unitSymbol: %
activation: 2.25
--
compound: N#C/C(=C\c1ccc(O)c(O)c1)C(=O)NCCc1ccccc1
unitSymbol: %
activation: 0.438
--
compound: CCCC[C@@]1(C2CCCC2)Cc2cc(OCC(=O)O)c(Cl)c(Cl)c2C1=O
unitSymbol: %
activation: 1.19
--
compound: N[C@@H](CCCC(=O)O)C(=O)O
unitSymbol: %
activation: 0.75
--
compound: O=c1[nH]c(=O)c2nc3ccccc3nc2[nH]1
unitSymbol: %
activation: 3.81
--
compound: NC1(C(=O)O)CCc2cc(C(=O)O)ccc21 (stereo not drawn)
unitSymbol: %
activation: 1.19
--
compound: CN1CCN(c2nc3cc(C(F)(F)F)ccc3n3cccc23)CC1
unitSymbol: %
activation: 1.06

----------
# procedureDetails: qHTS for differential inhibitors of proliferation of Plasmodium falciparum line HB3 (AID 1886);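 also: parasites grown with compound for 72 h before SYBR Green readout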
# settings: Plasmodium falciparum HB3 proliferation inhibition; series mostly up to 28.7 µM
Inconclusive results are not listed. Active and inactive are the calls of the source. The call rests on the fitted dose curve; in most records, active means well fitted curve in the direction sought with a large enough effect; inconclusive means small, poorly fitted or top-dose-only effect, or another doubt; inactive means no such curve, though single readings can be large or run the other way.
Outcomes: active, inactive

compound: Nc1ccc2c3c(cccc13)C(=O)NC2=O
categoryLabel: inactive
--
compound: C[C@H](O)C(=O)C1=Nc2c(nc(N)[nH]c2=O)NC1
categoryLabel: inactive
--
compound: C=CCN1CCc2c(cc(O)c(O)c2Br)[C@@H](c2ccccc2)C1
categoryLabel: active
--
compound: CNc1ncnc2c1ncn2[C@H]1C[C@H](OP(=O)(O)O)[C@@H](COP(=O)(O)O)O1
categoryLabel: inactive
--
compound: CCn1c(=O)[nH]c2cc(Cl)c(Cl)cc21
categoryLabel: inactive
--
compound: C=C1C(=O)O[C@@H]2[C@H]3O[C@]3(C)CCC=C(C)CC[C@@H]12
categoryLabel: active
--
compound: N[C@@H](CCCC(=O)O)C(=O)O
categoryLabel: inactive
--
compound: CCCCCC[C@@H]([C@@H](C)O)n1cnc2c(N)ncnc21
categoryLabel: inactive
--
compound: c1ccc(CN2CCC3(CCCc4ccccc43)CC2)cc1
categoryLabel: active
--
compound: NCCCCN=C(N)N
categoryLabel: inactive
--
compound: Cc1ccc2c(c1)C(N1CCN(C)CC1)=Nc1cccnc1N2
categoryLabel: inactive

----------
# procedureDetails: Natriuretic polypeptide receptor (hNpr1) antagonism - Pilot counterscreen GloSensor control cell line (AID 1347045)
# settings: HEK293 cGMP GloSensor cells, SNP-stimulated luminescence, 20 min; series mostly up to 38.3 µM
Records with an inconclusive call do not appear. Calls of active or inactive are those of the source. Calls come from the whole dose curve.
Outcomes: Yes for active, No for inactive

molecule: O=C(O)Cc1c[nH]c2ccc(O)cc12
categoryLabel: No
//
molecule: CC(O)C(O)[C@H]1CNc2nc(N)[nH]c(=O)c2N1 (stereo not given in full)
categoryLabel: No
//
molecule: CN1CCc2cc(Cl)c(O)cc2[C@@H](c2ccccc2)C1
categoryLabel: No
//
molecule: NC1(C(=O)O)CCc2cc(C(=O)O)ccc21 (stereo not given)
categoryLabel: No
//
molecule: Cc1cc(Cn2cnc3c2C[C@@H](C(=O)O)N(C(=O)C(c2ccccc2)c2ccccc2)C3)ccc1N
categoryLabel: No
//
molecule: O=C(O)CCC(=O)N1CCCC1C(=O)O (stereo not given)
categoryLabel: No
//
molecule: CN1CCN(c2nc3cc(C(F)(F)F)ccc3n3cccc23)CC1
categoryLabel: No
//
molecule: CC1CCN=C(N)S1 (stereo not given)
categoryLabel: No
//
molecule: Nc1ncnc2c1nc(Sc1ccc(Cl)cc1)n2[C@H]1OC2COP(=O)(O)O[C@@H]2C1O (stereo not given in full)
categoryLabel: No
//
molecule: Cc1cc2c(cc1Cl)N(C(=O)Nc1ccnc3ccccc13)CC2
categoryLabel: No
//
molecule: N[C@@H](CS(=O)O)C(=O)O
categoryLabel: No
//
molecule: Cc1ccccc1/C=C/C1=NCCN1
categoryLabel: No
//
molecule: N[C@@H](Cc1c[nH]c2ccccc12)C(=O)O
categoryLabel: No
//
molecule: CNc1ncnc2c1ncn2[C@H]1C[C@H](OP(=O)(O)O)[C@@H](COP(=O)(O)O)O1
categoryLabel: No
//
molecule: O=C(OCCN1CCOCC1)C1(c2ccccc2)CCCCC1
categoryLabel: No
//
molecule: O=C(N[C@@H](Cc1ccccc1)C(=O)CCl)OCc1ccccc1
categoryLabel: Yes
//
molecule: NCCC1CCCC(CCN)N1 (stereo not given)
categoryLabel: No
//
molecule: O=c1onc2cnc3ccccc3n12
categoryLabel: Yes
//
molecule: CCCc1c(OCCCOc2ccc(OCC(=O)O)cc2)ccc(C(C)=O)c1O
categoryLabel: No
//
molecule: CC(C)(C)c1ccc(/C=C/C(=O)Nc2ccc3c(c2)OCCO3)cc1
categoryLabel: Yes
